// hCA II (Homo sapiens, UniProt P00918) pKi records
Field pKi (float): negative decimal logarithm of the concentration in molar.

Qu. What measured pKi is associated with N#Cc1ccc(NC(=O)C[Se]C(=O)c2ccccc2)cc1C(F)(F)F on hCA II (Homo sapiens, UniProt P00918)?
Ans. 4.09

Qu. Then what about the compound O=C(C[Se]C(=O)c1ccco1)Nc1ccc([N+](=O)[O-])c(C(F)(F)F)c1 ?
Ans. 4.08

Qu. Then what about the compound O=C(C[Se]C(=O)c1ccccc1)Nc1ccc([N+](=O)[O-])c(C(F)(F)F)c1 ?
Ans. 4.30

Qu. Then what about the compound N#Cc1ccc(NC(=O)C[Se]C(=O)c2ccco2)cc1C(F)(F)F ?
Ans. 4.03

Qu. Then what about the compound O=C(C[Se]C(=O)c1ccccc1)Nc1cccc(OC(F)(F)F)c1 ?
Ans. 4.08

Qu. Then what about the compound O=C(C[Se]C(=O)c1ccco1)Nc1cccc(OC(F)(F)F)c1 ?
Ans. 5.09
